assay: Hemolysis assay; format: cell-based; settings: human erythrocyte suspension, fresh human erythrocytes
measured_property: hemolysis at 30 min, 20 µg/mL (%)
# output: bare number, implied unit %

Please list hemolysis at 30 min, 20 µg/mL recorded for the compound O=C1NC2(CCCc3ccccc32)C(=O)N1CCCCCN1CCN(c2nc3ccccc3[nH]2)CC1 (racemic)
5.6

====

system: P. falciparum W2 (CQ-resistant) strain; assay: P. falciparum drug susceptibility assay (pLDH), W2 strain; type: cell-based, Plasmodium falciparum; conditions: Plasmodium falciparum; W2 (CQ-resistant), 72 h, pLDH; read-out: P. falciparum IC50 W2
So I've got a bunch of compounds here, and I need their IC50 values.
# output: bare number, implied unit µg/mL

Using P. falciparum W2 (CQ-resistant) strain as the test system, report measured IC50 of O=C1NC2(CCCc3ccccc32)C(=O)N1CCCCCN1CCN(c2nc3ccccc3[nH]2)CC1 (racemic) .
2.42

Using P. falciparum W2 (CQ-resistant) strain as the test system, report measured IC50 of O=C1NC2(CCc3ccccc32)C(=O)N1CCCCCN1CCN(C2Cc3ccccc3C2)CC1 (racemic) .
5.65

Using P. falciparum W2 (CQ-resistant) strain as the test system, report measured IC50 of O=C1NC2(CCCc3ccccc32)C(=O)N1CCCCCN1CCN(C2Cc3ccccc3C2)CC1 (racemic) .
4.35

Using P. falciparum W2 (CQ-resistant) strain as the test system, report measured IC50 of O=C1NC2(CCc3ccccc32)C(=O)N1CCCCCN1CCN(c2nc3ccccc3[nH]2)CC1 (racemic) .
4.78
